Target: Alpha-2C adrenergic receptor (Homo sapiens, UniProt P18825)
Sequence (P18825 whole entry): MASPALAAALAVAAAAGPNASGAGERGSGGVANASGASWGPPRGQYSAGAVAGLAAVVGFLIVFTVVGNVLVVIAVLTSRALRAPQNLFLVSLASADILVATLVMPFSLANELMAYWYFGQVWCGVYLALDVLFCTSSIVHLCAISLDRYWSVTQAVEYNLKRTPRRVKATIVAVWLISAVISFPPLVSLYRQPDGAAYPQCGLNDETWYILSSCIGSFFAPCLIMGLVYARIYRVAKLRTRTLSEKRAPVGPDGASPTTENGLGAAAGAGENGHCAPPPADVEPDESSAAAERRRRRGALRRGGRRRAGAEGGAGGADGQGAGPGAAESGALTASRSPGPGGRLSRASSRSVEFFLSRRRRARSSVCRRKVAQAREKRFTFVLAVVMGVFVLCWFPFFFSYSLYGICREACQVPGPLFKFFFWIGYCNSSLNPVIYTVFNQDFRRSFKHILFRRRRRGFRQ
Experiment: Binding affinity to Alpha2C adrenoceptor receptor
Listed here: items and their measured Ki.
VALUE_TYPE: Ki

> print(dat)
                                   compound                         target.under.test  reported.measurement
1  Fc1cccc(CCNC23OC4C5C6CC(C7C6C4C72)C53)c1 (stereo not drawn)  Alpha-2C adrenergic receptor (Homo sapiens, UniProt P18825)               0.02 µM
2  OC12C3C4CC5C6C4C1C6C(C53)N2CCc1cccc(F)c1 (stereo not drawn)  Alpha-2C adrenergic receptor (Homo sapiens, UniProt P18825)               > 10 µM
3  OC12C3C4CC5C6C4C1C6C(C53)N2Cc1cccc(F)c1 (stereo not drawn)  Alpha-2C adrenergic receptor (Homo sapiens, UniProt P18825)               > 10 µM

====

Listed here: items and their measured Ki.
Target: Sigma non-opioid intracellular receptor 1 (Homo sapiens, UniProt Q99720)
Sequence (Q99720 whole entry): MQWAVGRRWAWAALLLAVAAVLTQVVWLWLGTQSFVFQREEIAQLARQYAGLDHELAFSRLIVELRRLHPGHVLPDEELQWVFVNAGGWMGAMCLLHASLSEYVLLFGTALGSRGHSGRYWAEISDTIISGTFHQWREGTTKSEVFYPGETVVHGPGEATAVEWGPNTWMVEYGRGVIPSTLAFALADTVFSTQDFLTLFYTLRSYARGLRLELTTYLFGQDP
Experiment: Binding affinity to sigma 1 receptor
VALUE_TYPE: Ki (nM)

> print(dat)
                                   compound  reported.measurement
1  Fc1cccc(CCNC23OC4C5C6CC(C7C6C4C72)C53)c1 (centres undefined)                   149
2  Fc1cccc(CNC23OC4C5C6CC(C7C6C4C72)C53)c1 (centres undefined)                  2280
3  OC12C3C4CC5C6C4C1C6C(C53)N2Cc1cccc(F)c1 (centres undefined)                   153
4  OC12C3C4CC5C6C4C1C6C(C53)N2CCc1cccc(F)c1 (centres undefined)                    12

====

Biological target: Sodium-dependent noradrenaline transporter (Homo sapiens, UniProt P23975)
Sequence (P23975 whole entry): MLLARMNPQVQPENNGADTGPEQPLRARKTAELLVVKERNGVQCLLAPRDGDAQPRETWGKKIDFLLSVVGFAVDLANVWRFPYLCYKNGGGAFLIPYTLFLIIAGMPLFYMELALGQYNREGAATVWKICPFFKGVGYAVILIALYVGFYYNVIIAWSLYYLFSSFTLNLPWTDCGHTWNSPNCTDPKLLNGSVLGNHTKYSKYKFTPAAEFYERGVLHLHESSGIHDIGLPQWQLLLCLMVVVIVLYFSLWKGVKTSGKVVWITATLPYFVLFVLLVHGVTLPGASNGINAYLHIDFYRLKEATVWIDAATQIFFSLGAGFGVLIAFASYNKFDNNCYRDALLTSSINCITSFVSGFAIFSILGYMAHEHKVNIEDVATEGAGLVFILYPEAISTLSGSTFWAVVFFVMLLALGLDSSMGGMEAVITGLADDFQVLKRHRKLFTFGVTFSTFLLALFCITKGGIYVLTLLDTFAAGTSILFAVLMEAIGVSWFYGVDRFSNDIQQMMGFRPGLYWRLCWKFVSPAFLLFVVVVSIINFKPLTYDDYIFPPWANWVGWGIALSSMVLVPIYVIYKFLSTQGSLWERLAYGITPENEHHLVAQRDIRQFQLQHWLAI
Experiment: Binding affinity to NET
pKi: −log10 of the molar value.
VALUE_TYPE: pKi

> print(dat)
                                   molecule                         target.under.test  reported.measurement
1  Fc1cccc(CCNC23OC4C5C6CC(C7C6C4C72)C53)c1 (stereo unspecified)  Sodium-dependent noradrenaline transporter (Homo sapiens, UniProt P23975)                < 5.00

====

Target: Sodium-dependent dopamine transporter (Homo sapiens, UniProt Q01959)
Sequence (Q01959 whole entry): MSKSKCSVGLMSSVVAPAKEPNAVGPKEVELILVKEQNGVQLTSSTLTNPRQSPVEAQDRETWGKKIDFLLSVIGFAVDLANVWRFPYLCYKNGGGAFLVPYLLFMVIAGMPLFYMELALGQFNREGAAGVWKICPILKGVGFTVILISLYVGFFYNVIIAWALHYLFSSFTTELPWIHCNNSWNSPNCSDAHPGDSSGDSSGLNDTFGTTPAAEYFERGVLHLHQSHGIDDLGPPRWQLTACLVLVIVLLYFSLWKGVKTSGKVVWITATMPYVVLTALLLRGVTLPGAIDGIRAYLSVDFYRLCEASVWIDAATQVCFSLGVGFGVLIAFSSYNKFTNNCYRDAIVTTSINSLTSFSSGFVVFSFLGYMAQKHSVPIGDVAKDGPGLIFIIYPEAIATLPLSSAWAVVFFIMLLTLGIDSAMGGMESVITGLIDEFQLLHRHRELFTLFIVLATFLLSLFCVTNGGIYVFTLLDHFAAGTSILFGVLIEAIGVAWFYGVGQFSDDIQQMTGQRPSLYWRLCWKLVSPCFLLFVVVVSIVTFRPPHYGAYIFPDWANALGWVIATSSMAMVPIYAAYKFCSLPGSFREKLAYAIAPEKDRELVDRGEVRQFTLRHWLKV
Experiment: Binding affinity to DAT
VALUE_TYPE: Ki

> print(dat)
                                   compound  reported.measurement
1  Fc1cccc(CCNC23OC4C5C6CC(C7C6C4C72)C53)c1 (stereo not drawn)              0.137 µM
2  OC12C3C4CC5C6C4C1C6C(C53)N2CCc1cccc(F)c1 (stereo not drawn)               > 10 µM
3  OC12C3C4CC5C6C4C1C6C(C53)N2Cc1cccc(F)c1 (stereo not drawn)               > 10 µM

====

Biological target: UniProt:P18825
Assay: Binding affinity to Alpha2C adrenoceptor receptor
pKi: −log10 of the molar value.
VALUE_TYPE: pKi

> print(dat)
                                   compound  reported.measurement
1  Fc1cccc(CCNC23OC4C5C6CC(C7C6C4C72)C53)c1 (stereo unspecified)                  7.70

====

Assay: Binding affinity to sigma 2 receptor
VALUE_TYPE: Ki (nM)

> print(dat)
                                   compound  reported.measurement
1  OC12C3C4CC5C6C4C1C6C(C53)N2CCc1cccc(F)c1 (centres undefined)                    48
2  OC12C3C4CC5C6C4C1C6C(C53)N2Cc1cccc(F)c1 (centres undefined)                    31
3  Fc1cccc(CNC23OC4C5C6CC(C7C6C4C72)C53)c1 (centres undefined)                  1640
4  Fc1cccc(CCNC23OC4C5C6CC(C7C6C4C72)C53)c1 (centres undefined)                   363
